Measured MIC (Cryptococcus neoformans (ATCC32045))
Use µg/mL as the unit, but write only the number.

Example entries begin here.
compound | MIC, µg/mL
CCCCCCCCOc1ccc(NC(=O)C(CCCNC(=O)OC(C)(C)C)NC(=O)C2(O)CC(OC(=O)/C=C/c3ccc(O)c(O)c3)C3OC(C)(C)OC3C2)cc1 (stereo not drawn) [Compound 6] | 2
CCCCCCCCOc1ccc(NC(=O)C(CCCN)NC(=O)C2(O)CC(O)C(O)C(OC(=O)/C=C/c3ccc(O)c(O)c3)C2)cc1 (stereo not drawn) [Compound 14] | 1

Moving on to the next compound.
Req: Query: MIC; subject: CCCCCCCCOc1ccc(NC(=O)C2(O)CC(OC(=O)/C=C/c3ccc(O)c(O)c3)C3OC(C)(C)OC3C2)cc1 (stereo not drawn) [Compound 1]
Resp: 2

* * *

- Tested on: brine shrimp
- Assay type: in vivo
- settings: at 100 μg/ml
Listed here are molecules together with their documented % BL (brine shrimp lethality).
Note: state the figure and append the unit.

// known answers, use as guide
molecule | endpoint name | result
CCCCCCCCOc1ccc(NC(=O)C(CC(=O)OC(C)(C)C)NC(=O)C2(O)CC(OC(=O)/C=C/c3ccc(O)c(O)c3)C3OC(C)(C)OC3C2)cc1 (stereo not drawn) [Compound 5] | % BL (brine shrimp lethality) | 56.2%
CCCCCCCCOc1ccc(NC(=O)C(NC(=O)C2(O)CC(OC(=O)/C=C/c3ccc(O)c(O)c3)C3OC(C)(C)OC3C2)C(C)OC(C)(C)C)cc1 (stereo not drawn) [Compound 4] | % BL (brine shrimp lethality) | 6.2%
CCCCCCCCOc1ccc(NC(=O)C(CCCN)NC(=O)C2(O)CC(O)C(O)C(OC(=O)CCc3ccc(O)c(O)c3)C2)cc1 (stereo not drawn) [Compound 16] | % BL (brine shrimp lethality) | 10.5%

Req: Could you tell me which % BL (brine shrimp lethality) is on file for CCCCCCCCOc1ccc(NC(=O)C(CO)NC(=O)C2(O)CC(O)C(O)C(OC(=O)/C=C/c3ccc(O)c(O)c3)C2)cc1 (stereo not drawn) [Compound 11] ?
Resp: 18.8%

Req: Using the record for CCCCCCCCOc1ccc(NC(=O)C(CCCNC(=O)OC(C)(C)C)NC(=O)C2(O)CC(O)C(O)C(OC(=O)C(N)CCc3ccc(O)cc3)C2)cc1 (stereo not drawn) [Compound 22] , report its % BL (brine shrimp lethality).
Resp: 36.8%

Req: Recorded % BL (brine shrimp lethality) for CCCCCCCCOc1ccc(NC(=O)C(COC(C)(C)C)NC(=O)C2(O)CC(O)C(O)C(OC(=O)/C=C/c3ccc(O)c(O)c3)C2)cc1 (stereo not drawn) [Compound 7] , please?
Resp: 31.1%

* * *

- Test system: Cryptococcus neoformans (ATCC32045)
endpoint name: MIC (µg/mL)
Enter your answer as a number in µg/mL; do not include the unit.

Past entries and their recorded results:
molecule | MIC, µg/mL
CCCCCCCCOc1ccc(NC(=O)C(CCCN)NC(=O)C2(O)CC(O)C(O)C(OC(=O)C(N)CCc3ccc(O)cc3)C2)cc1 (stereo not drawn) | 2
CCCCCCCCOc1ccc(NC(=O)C(COC(C)(C)C)NC(=O)C2(O)CC(O)C(O)C(OC(=O)/C=C/c3ccc(O)c(O)c3)C2)cc1 (stereo not drawn) | 2
CCCCCCCCOc1ccc(NC(=O)C(CCCNC(=O)OC(C)(C)C)NC(=O)C2(O)CC(O)C(O)C(OC(=O)C(N)CCc3ccc(O)cc3)C2)cc1 (stereo not drawn) | 4

Req: Value wanted: MIC (Cryptococcus neoformans (ATCC32045)) of entry CCCCCCCCOc1ccc(NC(=O)C(COC(C)(C)C)NC(=O)C2(O)CC(OC(=O)/C=C/c3ccc(O)c(O)c3)C3OC(C)(C)OC3C2)cc1 (stereo not drawn)
Resp: 2

Req: Missing value: MIC, Cryptococcus neoformans (ATCC32045), entry OC(Cn1cncn1)(Cn1cncn1)c1ccc(F)cc1F [Fluconazole, reference compound] . Fill in?
Resp: 0.5

# credit: patent US20100311827A1
